IC50: recorded values
# Test system: K562 cells
# METHOD NOTES: K562 cell culture and growth assay, 6 day MTT
# Format: cell-based, human
# EXPERIMENTAL CONTEXT: Table 8; K562, 6 days; mean+S.E., 4 or more experiments; read-out: IC50 (μM) 6 dMTT

COMPOUND | IC50 / µM
COC(=O)c1ccc(NCc2cc(O)ccc2O)cc1 [COOCH3 / H / H, reference compound] | 16.6
COc1ccc(OC)c(CNc2ccc(C(=O)O)cc2)c1 [COOH / H / CH3] | 100
CC(C)OC(=O)c1ccc(NCc2cc(O)ccc2O)cc1Cl [COOCH(CH3)2 / Cl / H] | 21.6

----------
# Tested on: K562 cells
# METHOD NOTES: K562 cell culture and growth assay, 6 day MTT
# Format: cell-based, human
# EXPERIMENTAL CONTEXT: Homo sapiens, 144 h; Table 9; K562, 6 days; mean ± S.E., 4 or more experiments; read-out: IC50 (μM) 6dMTT
Mark each entry fulfilled if its IC50 sits below 20 µM, and not fulfilled for all others.

CHEM SMILES | EXPERIMENTAL TARGET | ASSIGNED CLASS
COC(=O)c1ccc(NCC2=CC(=O)c3ccccc3C2=O)cc1 | K562 cells | fulfilled
CC(C)OC(=O)c1ccc(NCC2=CC(=O)C=CC2=O)cc1 | K562 cells | fulfilled
O=C1C=CC(=O)C(CNc2ccc(C(=O)OCc3ccccc3)cc2)=C1 | K562 cells | not fulfilled
COC(=O)c1ccc(NCC2=CC(=O)C=CC2=O)cc1 | K562 cells | fulfilled
CC(C)OC(=O)c1ccc(NCC2=CC(=O)C=CC2=O)cc1Cl | K562 cells | not fulfilled
O=C1C=CC(=O)C(CNc2ccc(C(=O)OC34CC5CC(CC(C5)C3)C4)cc2)=C1 | K562 cells | not fulfilled
CC(C)(C)OC(=O)c1ccc(NCC2=C(Br)C(=O)C=CC2=O)cc1 | K562 cells | not fulfilled
O=C1C=CC(=O)C(CNc2ccc(C(=O)OC34CC5CC(CC(C5)C3)C4)cc2)=C1Br | K562 cells | not fulfilled
CC(C)(C)OC(=O)c1ccc(NCC2=CC(=O)C=CC2=O)cc1 | K562 cells | not fulfilled
COC(=O)c1ccc(NCc2cc(O)c3ccccc3c2O)cc1 | K562 cells | fulfilled
COC(=O)c1ccc(NCC2=C(Br)C(=O)C=CC2=O)cc1Cl | K562 cells | fulfilled
COC(=O)c1ccc(NCC2=CC(=O)C=CC2=O)cc1O | K562 cells | fulfilled

----------
IC50: recorded values
# EXPERIMENTAL TARGET: p210^bcr-abl (Homo sapiens, UniProt P00519)
# Construct: immune complexes containing ^32P-labeled p210^bcr-abl were collected on protein Sepharose beads; BCR (N-terminal part of the breakpoint cluster region protein, natural fusion partner); endogenous in cells; host or cells: K562 cells (lysate, immunoprecipitated on Protein A-Sepharose); the other entry of the earlier key: BCR (P11274, Breakpoint cluster region protein)
# Sequence (P00519 with tags, fused parts or gaps): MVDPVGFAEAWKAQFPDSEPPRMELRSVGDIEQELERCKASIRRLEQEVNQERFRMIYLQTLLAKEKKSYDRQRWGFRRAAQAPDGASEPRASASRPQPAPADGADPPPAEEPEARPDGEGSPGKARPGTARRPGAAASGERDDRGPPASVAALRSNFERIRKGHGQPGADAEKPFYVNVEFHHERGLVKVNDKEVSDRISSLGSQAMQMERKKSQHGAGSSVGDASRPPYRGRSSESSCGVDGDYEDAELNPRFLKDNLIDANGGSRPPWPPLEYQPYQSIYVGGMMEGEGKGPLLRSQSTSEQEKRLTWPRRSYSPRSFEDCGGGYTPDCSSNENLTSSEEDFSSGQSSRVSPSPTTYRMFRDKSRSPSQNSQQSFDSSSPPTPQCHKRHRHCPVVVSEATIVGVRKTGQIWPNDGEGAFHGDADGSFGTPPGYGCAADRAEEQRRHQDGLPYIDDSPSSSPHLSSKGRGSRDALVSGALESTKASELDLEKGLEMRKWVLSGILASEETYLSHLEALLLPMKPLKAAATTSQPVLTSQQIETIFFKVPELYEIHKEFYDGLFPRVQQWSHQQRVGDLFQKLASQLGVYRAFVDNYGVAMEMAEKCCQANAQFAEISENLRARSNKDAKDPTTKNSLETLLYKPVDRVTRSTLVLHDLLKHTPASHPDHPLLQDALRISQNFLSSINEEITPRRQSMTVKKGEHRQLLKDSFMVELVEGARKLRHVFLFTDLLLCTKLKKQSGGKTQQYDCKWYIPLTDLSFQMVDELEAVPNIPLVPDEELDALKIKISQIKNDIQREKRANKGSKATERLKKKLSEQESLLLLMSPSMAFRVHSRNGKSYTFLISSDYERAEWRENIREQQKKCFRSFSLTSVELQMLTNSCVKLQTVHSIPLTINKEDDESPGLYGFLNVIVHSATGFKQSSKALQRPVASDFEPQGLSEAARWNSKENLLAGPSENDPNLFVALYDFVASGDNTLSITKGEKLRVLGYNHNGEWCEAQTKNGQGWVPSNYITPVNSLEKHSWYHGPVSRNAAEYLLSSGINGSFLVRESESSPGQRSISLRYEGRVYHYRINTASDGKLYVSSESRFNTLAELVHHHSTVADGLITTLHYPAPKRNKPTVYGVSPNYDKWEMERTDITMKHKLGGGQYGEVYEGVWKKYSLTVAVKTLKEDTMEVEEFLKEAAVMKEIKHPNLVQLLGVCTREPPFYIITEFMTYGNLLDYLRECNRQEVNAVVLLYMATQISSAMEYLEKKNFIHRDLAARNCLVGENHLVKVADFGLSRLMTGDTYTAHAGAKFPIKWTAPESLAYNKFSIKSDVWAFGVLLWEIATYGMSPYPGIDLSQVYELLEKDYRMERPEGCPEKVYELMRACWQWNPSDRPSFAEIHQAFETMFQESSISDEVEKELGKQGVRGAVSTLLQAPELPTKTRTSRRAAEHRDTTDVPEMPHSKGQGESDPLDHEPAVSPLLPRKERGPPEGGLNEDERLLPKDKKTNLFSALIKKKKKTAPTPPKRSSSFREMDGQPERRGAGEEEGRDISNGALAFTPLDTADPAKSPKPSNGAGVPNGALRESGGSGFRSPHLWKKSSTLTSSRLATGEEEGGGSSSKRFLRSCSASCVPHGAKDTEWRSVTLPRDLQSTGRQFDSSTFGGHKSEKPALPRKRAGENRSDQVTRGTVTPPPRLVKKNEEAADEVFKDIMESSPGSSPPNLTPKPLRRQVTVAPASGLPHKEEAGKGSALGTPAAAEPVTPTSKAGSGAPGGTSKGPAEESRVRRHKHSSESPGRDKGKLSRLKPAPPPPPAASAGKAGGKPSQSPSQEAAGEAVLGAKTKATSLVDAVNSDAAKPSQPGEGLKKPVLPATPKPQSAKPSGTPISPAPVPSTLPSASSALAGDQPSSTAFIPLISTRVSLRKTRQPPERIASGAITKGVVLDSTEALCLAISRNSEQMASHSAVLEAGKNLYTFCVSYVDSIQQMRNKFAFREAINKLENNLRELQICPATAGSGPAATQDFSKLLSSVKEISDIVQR
# METHOD NOTES: Inhibition of in vitro auto-phosphorylation of p210^bcr-abl, immune-complex kinase assay
# Type: biochemical
# EXPERIMENTAL CONTEXT: Table 8; immune complex kinase assay; mean+S.E., 3 experiments; read-out: Enzyme Assays IC50 (μM) p210bcl-abl in vitro phosphorylation

COMPOUND | EXPERIMENTAL TARGET | IC50 (µM)
CC(C)OC(=O)c1ccc(NCc2cc(O)ccc2O)cc1 [COOCH(CH3)2 / H / H] | p210^bcr-abl (Homo sapiens, UniProt P00519) | 4.45
CC(C)OC(=O)c1ccc(NCc2cc(O)ccc2O)cc1Cl [COOCH(CH3)2 / Cl / H] | p210^bcr-abl (Homo sapiens, UniProt P00519) | 1.22
O=C(O)c1ccc(NCc2cc(O)ccc2O)cc1 [COOH / H / H] | p210^bcr-abl (Homo sapiens, UniProt P00519) | 18.5
CC(=O)c1ccc(NCc2cc(O)ccc2O)cc1 [Compound 17] | p210^bcr-abl (Homo sapiens, UniProt P00519) | 1.03
COC(=O)c1ccc(NCc2cc(O)ccc2O)cc1 [COOCH3 / H / H, reference compound] | p210^bcr-abl (Homo sapiens, UniProt P00519) | 2.9
O=C(OCC12CC3CC(CC(C3)C1)C2)c1ccc(NCc2cc(O)ccc2O)cc1 [Compound 7] | p210^bcr-abl (Homo sapiens, UniProt P00519) | 12.6
NC(=O)c1ccc(NCc2cc(O)ccc2O)cc1 [CONH2 / H / H] | p210^bcr-abl (Homo sapiens, UniProt P00519) | 4.23

Origin of measurements: patent US6943191B1
